DC50 values, listed per item
TEST_SYSTEM: BRM (Homo sapiens, UniProt P51531)
Construct: In-Cell Western Screen of BRM Degradation in SW1573 Cells; endogenous in cells; host or cells: SW1573
Sequence (P51531 whole entry): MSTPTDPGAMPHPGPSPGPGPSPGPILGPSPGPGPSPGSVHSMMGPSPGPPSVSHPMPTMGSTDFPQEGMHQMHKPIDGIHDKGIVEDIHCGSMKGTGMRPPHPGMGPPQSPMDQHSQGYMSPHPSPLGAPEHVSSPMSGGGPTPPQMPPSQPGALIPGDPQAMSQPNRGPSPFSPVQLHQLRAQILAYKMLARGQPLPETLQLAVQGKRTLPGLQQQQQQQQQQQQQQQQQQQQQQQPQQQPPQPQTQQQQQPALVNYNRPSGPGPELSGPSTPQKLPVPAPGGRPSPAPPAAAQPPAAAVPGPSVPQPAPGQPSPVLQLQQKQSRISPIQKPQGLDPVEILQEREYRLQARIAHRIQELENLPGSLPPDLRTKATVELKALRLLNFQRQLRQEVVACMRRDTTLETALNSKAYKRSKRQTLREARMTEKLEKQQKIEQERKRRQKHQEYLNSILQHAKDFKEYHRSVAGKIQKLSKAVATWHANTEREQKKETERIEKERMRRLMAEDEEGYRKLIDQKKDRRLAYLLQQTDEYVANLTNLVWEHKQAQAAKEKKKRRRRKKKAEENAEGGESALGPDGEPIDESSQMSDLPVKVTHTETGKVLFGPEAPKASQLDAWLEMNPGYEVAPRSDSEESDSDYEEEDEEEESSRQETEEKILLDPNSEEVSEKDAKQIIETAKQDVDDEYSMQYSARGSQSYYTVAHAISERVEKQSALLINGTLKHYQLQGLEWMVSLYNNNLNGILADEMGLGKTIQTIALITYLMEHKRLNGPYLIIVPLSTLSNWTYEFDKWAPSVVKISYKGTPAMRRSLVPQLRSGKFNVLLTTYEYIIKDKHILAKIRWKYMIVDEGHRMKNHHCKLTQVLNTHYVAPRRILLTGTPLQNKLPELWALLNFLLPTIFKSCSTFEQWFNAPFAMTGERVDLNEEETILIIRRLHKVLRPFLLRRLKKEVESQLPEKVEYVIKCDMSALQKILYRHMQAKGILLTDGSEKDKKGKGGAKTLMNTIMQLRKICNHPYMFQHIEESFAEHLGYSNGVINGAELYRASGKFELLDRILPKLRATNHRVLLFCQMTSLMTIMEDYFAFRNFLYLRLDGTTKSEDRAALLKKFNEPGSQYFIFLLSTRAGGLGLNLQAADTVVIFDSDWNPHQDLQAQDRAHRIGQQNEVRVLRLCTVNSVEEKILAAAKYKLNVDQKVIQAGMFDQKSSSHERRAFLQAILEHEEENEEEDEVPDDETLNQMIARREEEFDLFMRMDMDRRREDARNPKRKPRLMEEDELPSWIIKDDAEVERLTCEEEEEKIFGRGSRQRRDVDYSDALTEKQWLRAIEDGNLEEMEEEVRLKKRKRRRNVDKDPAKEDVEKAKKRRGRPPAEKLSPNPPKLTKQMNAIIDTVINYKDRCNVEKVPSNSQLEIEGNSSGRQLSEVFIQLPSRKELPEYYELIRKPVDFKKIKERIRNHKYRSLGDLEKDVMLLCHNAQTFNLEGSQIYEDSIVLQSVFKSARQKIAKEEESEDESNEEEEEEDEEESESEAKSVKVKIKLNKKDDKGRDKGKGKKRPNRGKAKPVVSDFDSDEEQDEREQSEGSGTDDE
PROCEDURE_DETAILS: In-cell Western screen of BRM degradation in SW1573 cells (Dmax and DC50)
Type: cell-based
CONDITIONS: BRM degradation, SW1573 cells; read-out: DC50

>>> result("Cc1ncsc1-c1ccc([C@H](C)NC(=O)[C@@H]2C[C@@H](O)CN2C(=O)[C@@H](c2cc(OCCOCCOCCCCN3CC4(C3)CN(c3cc(-c5ccccc5O)nnc3N)C4)no2)C(C)C)cc1")
"> 30 nM"
>>> result("Cc1ncsc1-c1ccc([C@H](C)NC(=O)[C@@H]2C[C@@H](O)CN2C(=O)[C@@H](c2cc(OCC#Cc3ncc(O[C@H]4C[C@H](Oc5cc(N6C7CCC6CN(c6cc(-c8ccccc8O)nnc6N)C7)ccn5)C4)cn3)no2)C(C)C)cc1")
"< 2.5 nM"
>>> result("Cc1ncsc1-c1ccc([C@H](C)NC(=O)[C@@H]2C[C@@H](O)CN2C(=O)[C@H](c2cc(OCCCN3CCC(O[C@H]4C[C@H](Oc5cc(N6C7CCC6CN(c6cc(-c8ccccc8O)nnc6N)C7)ccn5)C4)CC3)no2)C(C)C)cc1")
"2.5 to 10 nM"

Please find the next compound below.
For the compound shown here, Cc1ncsc1-c1ccc([C@H](C)NC(=O)[C@@H]2C[C@@H](O)CN2C(=O)[C@@H](c2cc(O[C@H]3C[C@H](CN4CCC(O[C@H]5C[C@H](Oc6cc(N7C8CCC7CN(c7cc(-c9ccccc9O)nnc7N)C8)ccn6)C5)CC4)C3)no2)C(C)C)cc1 , give the reported DC50. < 2.5 nM

----------
TEST_SYSTEM: BRM (Homo sapiens, UniProt P51531)
Construct: In-Cell Western Screen of BRM Degradation in SW1573 Cells; endogenous in cells; host or cells: SW1573
PROCEDURE_DETAILS: In-cell Western screen of BRM degradation in SW1573 cells (Dmax and DC50)
Format: cell-based
CONDITIONS: degradation of BRM; read-out: BRM DC50
DC50 values, listed per item

Solved cases below.
>>> result("Cc1ncsc1-c1ccc([C@H](C)NC(=O)[C@@H]2C[C@@H](O)CN2C(=O)[C@H](c2cc(N3CCC(O[C@H]4C[C@H](Oc5cc(N6C7CCC6CN(c6cc(-c8ccccc8O)nnc6N)C7)ccn5)C4)CC3)no2)C(C)C)cc1")
"2.5 to 10 nM"
>>> result("Cc1nccn1-c1ccc([C@H](C)NC(=O)[C@@H]2C[C@@H](O)CN2C(=O)[C@@H](c2cc(N3CCN(CCN4CCC(O[C@H]5C[C@H](Oc6cc(N7C8CCC7CN(c7cc(-c9ccccc9O)nnc7N)C8)ccn6)C5)CC4)CC3)no2)C(C)C)cc1")
"< 2.5 nM"
>>> result("Cc1ncsc1-c1ccc([C@H](C)NC(=O)[C@@H]2C[C@@H](O)CN2C(=O)[C@@H](c2cc(OCCC3(O)CCN(C[C@H]4C[C@H](Oc5cc(N6C7CCC6CN(c6cc(-c8ccccc8O)nnc6N)C7)ccn5)C4)CC3)no2)C(C)C)cc1")
"< 2.5 nM"
>>> result("Cc1ncsc1-c1ccc([C@H](C)NC(=O)[C@@H]2C[C@@H](O)CN2C(=O)[C@@H](c2cc(OCCC3CCN([C@H]4C[C@H](CN5CCOC6(CCN(c7cc(-c8ccccc8O)nnc7N)CC6)C5)C4)CC3)no2)C(C)C)cc1")
"< 2.5 nM"
>>> result("Cc1ncsc1-c1ccc([C@H](C)NC(=O)[C@@H]2C[C@@H](O)CN2C(=O)[C@@H](c2cc(OCC(F)(F)CN3CCC(O[C@H]4C[C@H](Oc5cc(N6C7CCC6CN(c6cc(-c8ccccc8O)nnc6N)C7)ccn5)C4)CC3)no2)C(C)C)cn1")
"< 2.5 nM"
>>> result("Cc1ncsc1-c1ncc([C@H](C)NC(=O)[C@@H]2C[C@@H](O)CN2C(=O)[C@H](c2cc(OCCN3CCC(O[C@H]4C[C@H](Oc5cc(N6C7CCC6CN(c6cc(-c8ccccc8O)nnc6N)C7)ccn5)C4)CC3)no2)C(C)C)cn1")
"> 30 nM"
>>> result("Cc1ncsc1-c1cnc([C@@H](C)NC(=O)[C@@H]2C[C@@H](O)CN2C(=O)[C@H](c2cc(OCCN3CCC(O[C@H]4C[C@H](Oc5cc(N6C7CCC6CN(c6cc(-c8ccccc8O)nnc6N)C7)ccn5)C4)CC3)no2)C(C)C)cn1")
"> 30 nM"
>>> result("Cc1ncsc1-c1ccc([C@H](C)NC(=O)[C@@H]2C[C@@H](O)CN2C(=O)[C@H](c2cc(OCC(F)(F)CN3CCC(O[C@H]4C[C@H](Oc5cc(N6C7CCC6CN(c6cc(-c8ccccc8O)nnc6N)C7)ccn5)C4)CC3)no2)C(C)C)cn1")
"> 30 nM"
>>> result("Cc1ncsc1-c1ccc([C@H](C)NC(=O)[C@@H]2C[C@@H](O)CN2C(=O)[C@H](c2cc(OCCC3(O)CCN(C[C@H]4C[C@H](Oc5cc(N6C7CC[C@@H]6CN(c6cc(-c8ccccc8O)nnc6N)C7)ccn5)C4)CC3)no2)C(C)C)cc1")
"< 2.5 nM"
>>> result("Cc1ncsc1-c1ccc([C@H](C)NC(=O)[C@@H]2C[C@@H](O)CN2C(=O)[C@@H](c2cc(OCCC3CCN(C[C@H]4C[C@H](Oc5cc(N6C7CCC6CN(c6cc(-c8ccccc8O)nnc6N)C7)ccn5)C4)CC3)no2)C(C)C)cc1")
"< 2.5 nM"

Please find the next compound below.
For the compound shown here, Cc1ncsc1-c1cnc([C@@H](C)NC(=O)[C@@H]2C[C@@H](O)CN2C(=O)[C@@H](c2cc(OCCN3CCC(O[C@H]4C[C@H](Oc5cc(N6C7CCC6CN(c6cc(-c8ccccc8O)nnc6N)C7)ccn5)C4)CC3)no2)C(C)C)cn1 , give the reported DC50. 2.5 to 10 nM
